Molecular target: T1, human IL-2Rγ (common cytokine receptor γ-chain) (human, UniProt P31785 23-262, limits assumed)
T1 construct: Recombinant protein coated on the plate or immobilised on a CM5 chip; also called hu IL-2R; CD132
T1 sequence: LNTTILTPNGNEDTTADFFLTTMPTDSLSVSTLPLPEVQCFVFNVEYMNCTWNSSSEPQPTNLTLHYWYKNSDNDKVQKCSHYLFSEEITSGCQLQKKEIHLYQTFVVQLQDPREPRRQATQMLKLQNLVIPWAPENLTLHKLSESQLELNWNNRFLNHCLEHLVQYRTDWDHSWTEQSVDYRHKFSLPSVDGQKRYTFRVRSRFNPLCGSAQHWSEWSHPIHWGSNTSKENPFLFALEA
Experiment: PE binding ELISA, periplasmic extract on coated protein

>  <BINDER>
FJ1427_P035MP04C10 (VHH, VHH in periplasmic extract; also called clone nr) VHH: QVQLQESGGGWVQVGESLRLSCVPSGRTFVSGIMGWFRQAPGKEREFVARIILNNNSTRYTDSVKGRFTISRDSAKNTMYLQMNTLRPEDTAVYYCAARDRYGSGNSLSPSAYDYWGQGTQVTVSS

>  <OD (PE binding ELISA)>
1.33 OD450 nm

$$$$
>  <BINDER>
FJ1427_P035MP04A03 (VHH, VHH in periplasmic extract; also called clone nr) VHH: EVQLVESGGGWVQVGESLRLSCAPSGRTFVSGIMGWFRQTPGKEREFVARIILNNNSTRYTDSVKGRFTISRDSAKNTMYLQMNTLRPEDTAVYYCAARDRYGSGNSLSPSAYDYWGQGTQVTVSS

>  <OD (PE binding ELISA)>
1.87 OD450 nm

$$$$
